- Test system: 186277-243-T-J2-PDC complex spheroid growth
- ASSAY DETAILS: Anticancer human tumor 186277-243-T-J2-PDC patient-derived colon adenocarcinoma cell line growth inhibition [AhR]
- CONDITION SET: second compound 10 µM; first compound 10 µM; active compounds read low
MEASURE: viability, T/C

Examples with answers:
COMPOUND	MEASURE	OBS VALUE
O=C(C=Cc1cccc(S(=O)(=O)Nc2ccccc2)c1)NO + Cc1ccccc1N=Nc1ccc(NC(=O)c2ccnn2C)c(C)c1	viability, T/C	3.18%
CC1(C)CCC(CN2CCN(c3ccc(C(=O)NS(=O)(=O)c4ccc(NCC5CCOCC5)c([N+](=O)[O-])c4)c(Oc4cnc5[nH]ccc5c4)c3)CC2)=C(c2ccc(Cl)cc2)C1 + Cc1ccccc1N=Nc1ccc(NC(=O)c2ccnn2C)c(C)c1	viability, T/C	25.5%
CC1COCCN1c1cc(C2(S(C)(=N)=O)CC2)nc(-c2ccnc3[nH]ccc23)n1 (configuration not stated) + CC(CO)NC(=O)c1cc(-c2ccc(Cl)cc2)nn(-c2cnn(C)c2)c1=O	viability, T/C	3.4%
COc1cc(Nc2ncc3c(n2)-c2ccc(Cl)cc2C(c2c(F)cccc2OC)=NC3)ccc1C(=O)O + Cc1ccccc1N=Nc1ccc(NC(=O)c2ccnn2C)c(C)c1	viability, T/C	102%
CC(C)c1c(-c2ccccc2)nc2c(C#N)c[nH]n2c1=O + Cc1cncc(-c2nc(NCCc3c[nH]c4ccccc34)c3ncn(C(C)C)c3n2)c1	viability, T/C	34.4%

Return the recorded viability, T/C value; entry: O=C(c1cc(Cc2n[nH]c(=O)c3ccccc23)ccc1F)N1CCN(C(=O)C2CC2)CC1 + CC(CO)NC(=O)c1cc(-c2ccc(Cl)cc2)nn(-c2cnn(C)c2)c1=O
36.5%

Return the recorded viability, T/C value; entry: CC1COCCN1c1cc(C2(S(C)(=N)=O)CC2)nc(-c2ccnc3[nH]ccc23)n1 (configuration not stated) + Cc1cncc(-c2nc(NCCc3c[nH]c4ccccc34)c3ncn(C(C)C)c3n2)c1
5.52%

Return the recorded viability, T/C value; entry: COc1ccc([C@@H](O)c2cc(-c3ncnc4cc(N5CCOCC5)ccc34)c(F)cc2Cl)nn1 + Cc1cncc(-c2nc(NCCc3c[nH]c4ccccc34)c3ncn(C(C)C)c3n2)c1
13.2%

Return the recorded viability, T/C value; entry: COc1cc(C2c3cc4c(cc3C(OC3OC5COC(C)OC5C(O)C3O)C3COC(=O)C23)OCO4)cc(OC)c1O (configuration not stated) + Cc1ccccc1N=Nc1ccc(NC(=O)c2ccnn2C)c(C)c1
42.4%

Return the recorded viability, T/C value; entry: CC1(C)CCC(CN2CCN(c3ccc(C(=O)NS(=O)(=O)c4ccc(NCC5CCOCC5)c([N+](=O)[O-])c4)c(Oc4cnc5[nH]ccc5c4)c3)CC2)=C(c2ccc(Cl)cc2)C1 + CC(CO)NC(=O)c1cc(-c2ccc(Cl)cc2)nn(-c2cnn(C)c2)c1=O
9.34%

Return the recorded viability, T/C value; entry: COc1ccc([C@@H](O)c2cc(-c3ncnc4cc(N5CCOCC5)ccc34)c(F)cc2Cl)nn1 + Cc1ccccc1N=Nc1ccc(NC(=O)c2ccnn2C)c(C)c1
47.5%

Return the recorded viability, T/C value; entry: Nc1ccccc1NC(=O)c1ccc(CNC(=O)OCc2cccnc2)cc1 + Cc1cncc(-c2nc(NCCc3c[nH]c4ccccc34)c3ncn(C(C)C)c3n2)c1
0.95%

* * *

- Test system: 186277-243-T-J2-PDC complex spheroid growth
- ASSAY DETAILS: Anticancer human tumor 186277-243-T-J2-PDC cell line growth inhibition [AhR];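 note: luminescent signal used as a stand-in for viable cell amount; spheroids exposed to compounds for seven days before the viability read; 100% = DMSO vehicle control wells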
- CONDITION SET: second compound 0.1 µM; first compound 0.0949 µM; active compounds read low
Reported values of viability, T/C for individual entries
Form entry: value (%) — number only.

Examples with answers:
COMPOUND	TESTED ON	viability, T/C / %
O=C(C=Cn1cnc(-c2cc(C(F)(F)F)cc(C(F)(F)F)c2)n1)NNc1cnccn1 + CC(CO)NC(=O)c1cc(-c2ccc(Cl)cc2)nn(-c2cnn(C)c2)c1=O	186277-243-T-J2-PDC complex spheroid growth	46.8
CC(C)CC(NC(=O)C(Cc1ccccc1)NC(=O)c1cnccn1)B(O)O (stereo not drawn) + Cc1cncc(-c2nc(NCCc3c[nH]c4ccccc34)c3ncn(C(C)C)c3n2)c1	186277-243-T-J2-PDC complex spheroid growth	0.49

Now consider the entry below.
Return the recorded viability, T/C value; entry: CCc1c2c(nc3ccc(O)cc13)-c1cc3c(c(=O)n1C2)COC(=O)[C@]3(O)CC + Cc1cncc(-c2nc(NCCc3c[nH]c4ccccc34)c3ncn(C(C)C)c3n2)c1
25.2

* * *

- Tested on: 186277-243-T-J2-PDC complex spheroid growth
- ASSAY DETAILS: Anticancer human tumor 186277-243-T-J2-PDC cell line growth inhibition [AhR];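 note: luminescent signal used as a stand-in for viable cell amount; spheroids exposed to compounds for seven days before the viability read; 100% = DMSO vehicle control wells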
- CONDITION SET: second compound 1 µM; first compound 0.001 µM; active compounds read low
Reported values of viability, T/C for individual entries
Form entry: value (%) — number only.

COMPOUND	MEASURE	OBS VALUE
Cn1ncnc1C1c2n[nH]c(=O)c3cc(F)cc(c23)NC1c1ccc(F)cc1 (stereo not drawn) + Cc1cncc(-c2nc(NCCc3c[nH]c4ccccc34)c3ncn(C(C)C)c3n2)c1	viability, T/C	97.1
CC[C@@]1(O)C(=O)OCc2c1cc1n(c2=O)Cc2cc3c(CN(C)C)c(O)ccc3nc2-1 + CC(CO)NC(=O)c1cc(-c2ccc(Cl)cc2)nn(-c2cnn(C)c2)c1=O	viability, T/C	102

Now consider the entry below.
Return the recorded viability, T/C value; entry: Cn1ncnc1C1c2n[nH]c(=O)c3cc(F)cc(c23)NC1c1ccc(F)cc1 (stereo not drawn) + CC(CO)NC(=O)c1cc(-c2ccc(Cl)cc2)nn(-c2cnn(C)c2)c1=O
108

* * *

- Test system: 186277-243-T-J2-PDC complex spheroid growth
- ASSAY DETAILS: Anticancer human tumor 186277-243-T-J2-PDC cell line growth inhibition [AhR];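 note: luminescent signal used as a stand-in for viable cell amount; spheroids exposed to compounds for seven days before the viability read; 100% = DMSO vehicle control wells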
- CONDITION SET: second compound 0.1 µM; first compound 1 µM; active compounds read low
Doc: threshold 7% (exclusive). Items with viability, T/C beneath it return condition met; others return condition not met.

Example cases with answers are listed next.
COMPOUND	CLASS
COc1cccc2c1C(=O)c1c(O)c3c(c(O)c1C2=O)CC(O)(C(=O)CO)CC3OC1CC(N)C(O)C(C)O1 (configuration not stated) + Cc1ccccc1N=Nc1ccc(NC(=O)c2ccnn2C)c(C)c1	condition met
COc1cccc2c1C(=O)c1c(O)c3c(c(O)c1C2=O)CC(O)(C(=O)CO)CC3OC1CC(N)C(O)C(C)O1 (configuration not stated) + Cc1cncc(-c2nc(NCCc3c[nH]c4ccccc34)c3ncn(C(C)C)c3n2)c1	condition met
O=C(C=Cc1cccc(S(=O)(=O)Nc2ccccc2)c1)NO + Cc1cncc(-c2nc(NCCc3c[nH]c4ccccc34)c3ncn(C(C)C)c3n2)c1	condition not met

Take the compound CC1COCCN1c1cc(-c2ccnn2C)c2ccnc(-c3ccn[nH]3)c2n1 (configuration not stated) + CC(CO)NC(=O)c1cc(-c2ccc(Cl)cc2)nn(-c2cnn(C)c2)c1=O and say whether its viability, T/C is less than 7%.
condition met

Take the compound CC1COCCN1c1cc(C2(S(C)(=N)=O)CC2)nc(-c2ccnc3[nH]ccc23)n1 (configuration not stated) + Cc1ccccc1N=Nc1ccc(NC(=O)c2ccnn2C)c(C)c1 and say whether its viability, T/C is less than 7%.
condition not met

Take the compound NS(=O)(=O)OCC1CC(n2ccc3c(NC4CCc5ccccc54)ncnc32)CC1O (configuration not stated) + Cc1ccccc1N=Nc1ccc(NC(=O)c2ccnn2C)c(C)c1 and say whether its viability, T/C is less than 7%.
condition not met

Take the compound Nc1ccn(C2OC(CO)C(O)C2(F)F)c(=O)n1 (configuration not stated) + Cc1cncc(-c2nc(NCCc3c[nH]c4ccccc34)c3ncn(C(C)C)c3n2)c1 and say whether its viability, T/C is less than 7%.
condition not met

* * *

- System: 186277-243-T-J2-PDC complex spheroid growth
- ASSAY DETAILS: Anticancer human tumor 186277-243-T-J2-PDC cell line growth inhibition [AhR];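 note: luminescent signal used as a stand-in for viable cell amount; spheroids exposed to compounds for seven days before the viability read; 100% = DMSO vehicle control wells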
- CONDITION SET: second compound 0.1 µM; first compound 0.316 µM; active compounds read low
Doc: threshold 80% (exclusive). Items with viability, T/C beneath it return 1.0; others return 0.0.

Example cases with answers are listed next.
COMPOUND	CLASS
COc1ccc([C@@H](O)c2cc(-c3ncnc4cc(N5CCOCC5)ccc34)c(F)cc2Cl)nn1 + Cc1ccccc1N=Nc1ccc(NC(=O)c2ccnn2C)c(C)c1	0.0
CC1COCCN1c1cc(-c2ccnn2C)c2ccnc(-c3ccn[nH]3)c2n1 (stereo unspecified) + Cc1ccccc1N=Nc1ccc(NC(=O)c2ccnn2C)c(C)c1	1.0
CC(C)c1c(-c2ccccc2)nc2c(C#N)c[nH]n2c1=O + Cc1ccccc1N=Nc1ccc(NC(=O)c2ccnn2C)c(C)c1	0.0
CC(C)c1c(-c2ccccc2)nc2c(C#N)c[nH]n2c1=O + Cc1cncc(-c2nc(NCCc3c[nH]c4ccccc34)c3ncn(C(C)C)c3n2)c1	0.0

Now for another entry.
Take the compound Nc1ccn(C2OC(CO)C(O)C2(F)F)c(=O)n1 (stereo unspecified) + CC(CO)NC(=O)c1cc(-c2ccc(Cl)cc2)nn(-c2cnn(C)c2)c1=O and say whether its viability, T/C is less than 80%.
1.0
